Test system: CAMK2D;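 also: KINOMEscan kinase panel screen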
Conditions: concentration: 1 μM,replicates: in singlicate; n = 1
Response field label: string, one of YES (%Inh strictly below 1%) or NO.

1) COc1ccc(C[C@@H](CN)NC(=O)c2cc(Br)c(-c3ccnc4[nH]ccc34)s2)cc1.Cl.Cl; NO
2) CC(C)N1C(=O)Cc2cc(Nc3ncc(C(F)(F)F)c(NCc4cccc(S(C)(=O)=O)c4)n3)ccc21; NO
3) Cc1cc(C(=O)Nc2ccc(Oc3ccc4nc(NC(=O)C5CC5)cn4n3)cc2)nn1-c1ccccc1; NO

**Query** Does Nc1nc(Nc2ccccc2)cc(-c2ccc3c(N)n[nH]c3c2)n1 have %Inh strictly under 1%?
**Result** YES

**Query** Does Cc1ccc(-n2nc(C(C)(C)C)cc2NC(=O)Nc2ccc(OCCN3CCOCC3)c3ccccc23)cc1 have %Inh strictly under 1%?
**Result** NO

**Query** Does C=CC(=O)Nc1cc2c(Nc3ccc(F)c(Cl)c3)ncnc2cc1OCCCN1CCOCC1 have %Inh strictly under 1%?
**Result** YES

**Query** Does Cc1cc2cn[nH]c2cc1-c1cccc2c(N)c(C(N)=O)nnc12 have %Inh strictly under 1%?
**Result** NO
